# Target system: methionyl-tRNA synthetase (Trypanosoma brucei brucei)
# Assay name: inhibition of trypanosomal methionyl-tRNA synthetase – biochemical, luminescence, dose response, round 2, late-stage follow-up (AID 743300)
# Experimental context: T. brucei MetRS enzyme, luminescence read-out
pIC50: −log10 of the molar value.
Reported metric: pIC50

{"columns": ["Molecule", "Observed measurement"],
 "data": [
  ["CCN(CC)C(=O)C(=O)c1cn(CC(=O)Nc2cccc(C(F)(F)F)c2)c2ccccc12", 7.00]
]}
